Source: patent US10266560B2

target_under_test: Human FXR (NR1H4) (Homo sapiens (Human), UniProt Q96RI1)
Sequence (Q96RI1 whole entry, the tested form may be a part): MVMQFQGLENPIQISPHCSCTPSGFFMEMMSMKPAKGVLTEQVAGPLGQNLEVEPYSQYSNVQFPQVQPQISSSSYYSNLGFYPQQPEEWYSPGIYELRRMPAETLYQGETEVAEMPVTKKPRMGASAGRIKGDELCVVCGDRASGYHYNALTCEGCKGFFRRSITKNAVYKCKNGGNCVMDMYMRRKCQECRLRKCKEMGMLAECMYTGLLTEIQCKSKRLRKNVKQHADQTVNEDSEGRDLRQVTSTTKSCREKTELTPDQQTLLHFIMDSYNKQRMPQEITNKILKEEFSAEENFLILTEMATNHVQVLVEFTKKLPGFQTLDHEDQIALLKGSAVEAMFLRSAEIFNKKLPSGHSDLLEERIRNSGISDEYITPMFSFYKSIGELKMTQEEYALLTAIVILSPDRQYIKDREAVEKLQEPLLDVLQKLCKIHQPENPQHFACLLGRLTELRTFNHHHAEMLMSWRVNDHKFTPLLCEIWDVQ
run_description: Human FXR (NR1H4) Assay (Gal4 promoter driven luciferase reporter transactivation in CHO cells)
Format: cell-based
conditions_used: CHO, read-out: Efficacy (%)
Provide the reported Emax of each item.
Give a bare numeral; the unit % is implied.

Fill blank: measured Emax of the compound CC[C@@H]1C2C[C@H](O)CCC2(C)[C@H]2CCC3(C)C([C@H](C)CCC(=O)NS(=O)(=O)c4ccc(OC(F)(F)F)cc4)CC[C@H]3[C@@H]2[C@@H]1O (stereo partly drawn) is ____. 606

Fill blank: measured Emax of the compound CC[C@@H]1C2C[C@H](O)CCC2(C)[C@H]2CCC3(C)C([C@H](C)CCC(=O)NS(=O)(=O)c4ccc(C)c(F)c4)CC[C@H]3[C@@H]2[C@@H]1O (stereo partly drawn) is ____. 303

Fill blank: measured Emax of the compound CC[C@@H]1C2C[C@H](O)CCC2(C)[C@H]2CCC3(C)C([C@H](C)CCC(=O)NS(=O)(=O)c4cccc(C)c4)CC[C@H]3[C@@H]2[C@@H]1O (stereo partly drawn) is ____. 382

Fill blank: measured Emax of the compound CC[C@@H]1C2C[C@H](O)CCC2(C)[C@H]2CCC3(C)C([C@H](C)CCC(=O)NS(=O)(=O)c4cccc(Cl)c4)CC[C@H]3[C@@H]2[C@@H]1O (stereo partly drawn) is ____. 572

Fill blank: measured Emax of the compound CC[C@@H]1C2C[C@H](O)CCC2(C)[C@H]2CCC3(C)C([C@H](C)CCC(=O)NS(=O)(=O)C4CCCC4)CC[C@H]3[C@@H]2[C@@H]1O (stereo partly drawn) is ____. 342

Fill blank: measured Emax of the compound CC[C@@H]1C2C[C@H](O)CCC2(C)[C@H]2CCC3(C)C([C@H](C)CCC(=O)NS(=O)(=O)c4cccc(OC(F)(F)F)c4)CC[C@H]3[C@@H]2[C@@H]1O (stereo partly drawn) is ____. 467
